- assay-target: cIAP2-MALT1 fusion protein (Homo sapiens)
- assay-protocol: cell-based
pIC50: −log10 of the molar value.
readout-type: pIC50

Field: example entries. Status: answers known.
CO[C@@H](c1c(NC(=O)Nc2ccnc(C(F)(F)F)c2)cnc2cc(Cl)nn12)C(C)C :: 6.66
CC(C)c1c(NC(=O)Nc2cc(C(F)(F)F)cn(C)c2=O)cnc2cc(Cl)nn12 :: 6.67
Cc1cc(CO)nn1-c1ccc(NC(=O)Nc2cnc3cc(Cl)nn3c2C(C)C)cc1Cl :: 6.67

A: Cc1cc2ncc(NC(=O)Nc3cnc(-n4nccn4)c(Cl)c3)c(C3(C)CC3)n2n1
B: COCC(C)(OC)c1c(NC(=O)Nc2cnc(-n3nccn3)c(Cl)c2)cnc2cc(Cl)nn12 (centres unmarked)
C: CCOc1ncc(NC(=O)Nc2cnc3cc(Cl)nn3c2C(C)C)cc1Cl
query: Order the entries by their reported pIC50, beginning at the minimum. Order the labels as requested and give them as your answer.
result: C, A, B
(C: 6.51, A: 6.75, B: 7.02)

I: COC[C@H](OC)c1c(NC(=O)Nc2cnc(-n3nccn3)c(Cl)c2)cnc2cc(Cl)nn12
II: CO[C@H](C)CO[C@@H](C)c1c(NC(=O)Nc2cnc(-n3nccn3)c(Cl)c2)cnc2cc(Cl)nn12
query: Kindly identify the item with the lower pIC50 figure among these two: I and II Indicate which entry you chose by stating its label.
result: II

---

- assay-target: cIAP2-MALT1 fusion protein (Homo sapiens, UniProt Q9UDY8)
- Sequence (Q9UDY8 2-824 limits assumed): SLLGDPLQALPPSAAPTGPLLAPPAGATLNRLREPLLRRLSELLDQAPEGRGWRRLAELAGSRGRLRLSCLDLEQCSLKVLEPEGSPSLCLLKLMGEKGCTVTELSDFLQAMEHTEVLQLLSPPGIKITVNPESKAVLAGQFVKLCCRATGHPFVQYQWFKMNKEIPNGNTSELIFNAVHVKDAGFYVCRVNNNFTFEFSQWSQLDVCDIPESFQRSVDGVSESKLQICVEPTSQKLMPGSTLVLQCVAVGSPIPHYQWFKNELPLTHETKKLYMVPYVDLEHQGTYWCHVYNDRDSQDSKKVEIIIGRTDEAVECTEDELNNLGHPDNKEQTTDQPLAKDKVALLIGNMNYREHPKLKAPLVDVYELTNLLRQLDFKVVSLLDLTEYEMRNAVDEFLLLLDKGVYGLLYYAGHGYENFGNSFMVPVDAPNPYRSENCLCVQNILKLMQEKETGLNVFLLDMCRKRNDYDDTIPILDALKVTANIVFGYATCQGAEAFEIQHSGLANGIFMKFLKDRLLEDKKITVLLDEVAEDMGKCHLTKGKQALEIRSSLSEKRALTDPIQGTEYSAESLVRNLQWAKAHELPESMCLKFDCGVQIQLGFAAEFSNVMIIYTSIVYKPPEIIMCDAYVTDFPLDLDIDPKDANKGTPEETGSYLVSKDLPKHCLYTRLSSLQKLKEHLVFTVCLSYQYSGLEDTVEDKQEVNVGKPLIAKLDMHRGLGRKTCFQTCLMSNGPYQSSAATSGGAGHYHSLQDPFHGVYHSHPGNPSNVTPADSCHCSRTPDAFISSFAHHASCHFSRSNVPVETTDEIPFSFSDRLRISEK
- assay-protocol: cell-based
pIC50: −log10 of the molar value.
readout-type: pIC50

Field: example entries. Status: answers known.
COC(c1ccccc1)c1c(NC(=O)Nc2cnc(-n3nccn3)c(Cl)c2)cnc2cc(Cl)nn12 (centres unmarked) :: 7.23
COCC1(c2c(NC(=O)Nc3cnc(-n4nccn4)c(Cl)c3)cnc3cc(Cl)nn23)CCCO1 (centres unmarked) :: 6.98
COCC1(c2c(NC(=O)Nc3cnc(-n4nccn4)c(Cl)c3)cnc3cc(Cl)nn23)CCC1 :: 6.64

a: COc1ncc(NC(=O)Nc2cnc3cc(C)nn3c2C2(C)CC2)cc1Cl
b: CC(C)c1c(NC(=O)Nc2cc(Cl)cc3c2NC(=O)C3)cnc2cc(Cl)nn12
query: Which value of pIC50 is greater, the one for a or the one for b ? Indicate which entry you chose by stating its label.
result: a
(a: 6.79, b: 6.46)

---

- System: Human IL2 promoter
- assay-protocol: Human IL2 promoter reporter gene assay (RGA) in Jurkat cells
- Type: cell-based
- applied-conditions: Jurkat clone K22 290_H23, anti-CD28 mAb + PMA stimulation 5.5 h
- Procedure: Human IL2 Promoter Reporter Gene Assay (RGA) in Jurkat Cells The transfected Jurkat clone K22 290_H23 was propagated in RPMI 1640 supplemented with 10% heat inactivated fetal calf serum, 50 μM 2-mercaptoethanol and 1 mg/ml Geneticin. The cell concentration should not exceed 1×10e6/ml during culturing. […] After cell stimulation, 50 μl of BriteLitePlus reagent (Perkin Elmer) was added to each well and the bioluminescence was measured with a Wallac EnVision reader (Perkin Elmer).
pIC50: −log10 of the molar value.
readout-type: pIC50

CO[C@@H](C)c1c(NC(=O)Nc2ccnc(C#N)c2)cnc2cc(Cl)nn12 :: 7.23
CN(C)C1(c2c(NC(=O)Nc3cnc(-n4nccn4)c(C(F)(F)F)c3)cnc3cc(Cl)nn23)CC1 :: 7.22
O=C(Nc1cnc(-n2nccn2)c(Cl)c1)Nc1cnc2cc(Cl)nn2c1C1COCCN1 (centres unmarked) :: 6.70
COC[C@H](C)c1c(NC(=O)Nc2cnc(-n3nccn3)c(C(F)(F)F)c2)cnc2cc(Cl)nn12 :: 7.27
O=C(Nc1cnc(-n2nccn2)c(Cl)c1)Nc1cnc2cc(Cl)nn2c1C1CCOCC1 :: 6.57
COCC1(c2c(NC(=O)Nc3cnc(-n4nccn4)c(Cl)c3)cnc3cc(C)nn23)CC1 :: 7.12
O=C(Nc1cnc(-n2nccn2)c(C(F)(F)F)c1)Nc1cnc2cc(Cl)nn2c1C1CCCO1 (centres unmarked) :: 7.03
CO[C@@H](C)c1c(NC(=O)Nc2cc(Cl)cnc2OCCN(C)C)cnc2cc(Cl)nn12 :: 7.39

A: COC(=O)c1cc(Cl)cc(NC(=O)Nc2cnc3cc(Cl)nn3c2[C@H](C)OC)c1
B: COCC(OC)c1c(NC(=O)Nc2cnc(-n3nccn3)c(Cl)c2)cnc2cc(Cl)nn12 (centres unmarked)
query: Kindly identify the item with the lower pIC50 figure among these two: A and B Indicate which entry you chose by stating its label.
result: B

---

- System: Human IL2 promoter
- assay-protocol: Human IL2 promoter reporter gene assay (RGA) in Jurkat cells
- Type: cell-based
- applied-conditions: Jurkat clone K22 290_H23, anti-CD28 mAb + PMA stimulation 5.5 h
readout-type: IC50 (nM)

Field: example entries. Status: answers known.
CC(C)c1c(NC(=O)Nc2cnc(-n3cc(CN)cn3)c(Cl)c2)cnc2cc(Cl)nn12 :: 112
CC(C)c1c(NC(=O)Nc2cncc(Br)c2)cnc2cc(Cl)nn12 :: 134

I: O=C(Nc1cnc(-n2nccn2)c(Cl)c1)Nc1cnc2cc(Cl)nn2c1C1CCC1
II: C[C@H](OC[C@@H]1CCOC1)c1c(NC(=O)Nc2cnc(-n3nccn3)c(Cl)c2)cnc2cc(Cl)nn12
query: Kindly identify the item with the lower IC50 figure among these two: I and II Indicate which entry you chose by stating its label.
result: II
(II: 50 nM, I: 145 nM)

---

- Tested on: Human IL2 promoter
- assay-protocol: Human IL2 promoter reporter gene assay (RGA) in Jurkat cells
- Assay type: cell-based
- applied-conditions: Jurkat clone K22 290_H23, anti-CD28 mAb + PMA stimulation 5.5 h
pIC50: −log10 of the molar value.
readout-type: pIC50

Field: example entries. Status: answers known.
CO[C@@H](C)c1c(NC(=O)Nc2cnc(-n3nccn3)c(C(F)(F)F)c2)cnc2cc(F)nn12 [Example 94] :: 7.80
CN(C)C1(c2c(NC(=O)Nc3cnc(-n4nccn4)c(Cl)c3)cnc3cc(Cl)nn23)CC1 [Example 88] :: 7.33
COC[C@@H](C)c1c(NC(=O)Nc2cnc(-n3nccn3)c(C(F)(F)F)c2)cnc2cc(Cl)nn12 [Example 110] :: 6.94
COCC1(c2c(NC(=O)Nc3cnc(-n4nccn4)c(Cl)c3)cnc3cc(Cl)nn23)CCCO1 (stereo not shown) [Example 91] :: 7.05

P: CO[C@@H](C)c1c(NC(=O)Nc2cnc(OC(F)F)c(Cl)c2)cnc2cc(Cl)nn12 [Example 93]
Q: CO[C@H](C)c1c(NC(=O)Nc2cnc(-n3nccn3)c(Cl)c2)cnc2cc(Cl)nn12 [Example 46]
query: Kindly identify the item with the lower pIC50 figure among these two: P and Q Indicate which entry you chose by stating its label.
result: P

A: CC(C)c1c(NC(=O)Nc2cc(Cl)c(-n3nccn3)c(Cl)c2)cnc2cc(Cl)nn12 [Example 30]
B: CO[C@H](c1c(NC(=O)Nc2cnc(-n3nccn3)c(Cl)c2)cnc2cc(Cl)nn12)C(C)C [Example 74]
C: CO[C@@H](C)c1c(NC(=O)Nc2cnc(-n3nccn3)c(Cl)c2)cnc2cc(F)nn12 [Example 95]
query: Sequence the entries by pIC50, beginning with the highest number. Order the labels as requested and give them as your answer.
result: C, B, A
(C: 7.89, B: 7.49, A: 6.29)

1: COCC1(c2c(NC(=O)Nc3cncc(C(F)(F)F)c3)cnc3cc(Cl)nn23)CCCO1 (stereo not shown) [Example 106]
2: CO[C@@H](C)c1c(NC(=O)Nc2ccnc(C(F)(F)F)c2)cnc2cc(C)nn12 [Example 6]
3: CN1CCOCC1c1c(NC(=O)Nc2cnc(-n3nccn3)c(Cl)c2)cnc2cc(Cl)nn12 (stereo not shown) [Example 125]
4: C[C@@H](c1c(NC(=O)Nc2cnc(-n3nccn3)c(Cl)c2)cnc2cc(Cl)nn12)N(C)C [Example 122]
query: Sequence the entries by pIC50, beginning with the highest number. Order the labels as requested and give them as your answer.
result: 4, 2, 3, 1

P: COc1ncc(NC(=O)Nc2cnc3cc(Cl)nn3c2C(C)C)cc1Cl [Example 18]
Q: CO[C@@H](C)c1c(NC(=O)Nc2cnc(-n3nccn3)c(Cl)c2)cnc2cc(C#N)nn12 [Example 96]
query: Which value of pIC50 is greater, the one for P or the one for Q ? Indicate which entry you chose by stating its label.
result: Q
(Q: 7.31, P: 6.68)

---

- assay-target: cIAP2-MALT1 fusion protein (Homo sapiens, UniProt Q9UDY8)
- assay-protocol: cell-based
pIC50: −log10 of the molar value.
readout-type: pIC50

Field: example entries. Status: answers known.
COCCC(OC)c1c(NC(=O)Nc2cnc(-n3nccn3)c(Cl)c2)cnc2cc(Cl)nn12 (centres unmarked) [Example 64] :: 6.73
COCCO[C@@H](C)c1c(NC(=O)Nc2cnc(-n3nccn3)c(Cl)c2)cnc2cc(Cl)nn12 [Example 39] :: 7.22
CC(C)(C)OC(=O)N1CCOC(c2c(NC(=O)Nc3cnc(-n4nccn4)c(Cl)c3)cnc3cc(Cl)nn23)C1 (centres unmarked) [Example 66] :: 6.62
CC(C)c1c(NC(=O)Nc2ccc(-c3ccnc(N)n3)c(Cl)c2)cnc2cc(Cl)nn12 [Example 23] :: 6.52

a: CC1(c2c(NC(=O)Nc3cnc(-n4nccn4)c(Cl)c3)cnc3cc(Cl)nn23)CCOCC1 [Example 55]
b: CC(C)c1c(NC(=O)Nc2cnc(N3CCCS3(=O)=O)c(C(F)(F)F)c2)cnc2cc(Cl)nn12 [Example 27]
c: COCC1(c2c(NC(=O)Nc3cnc(-n4nccn4)c(Cl)c3)cnc3cc(C)nn23)CC1 [Example 78]
d: CC(C)(c1c(NC(=O)Nc2ccnc(C(F)(F)F)c2)cnc2cc(Cl)nn12)C1CCOCC1 [Example 80]
query: Sequence the entries by pIC50, beginning with the highest number. Order the labels as requested and give them as your answer.
result: b, c, a, d
(b: 7.27, c: 6.80, a: 6.54, d: 6.21)

Just for reference, patent US9815842B2 is where these values come from.
